B1: DYRK1B (parent)
chain: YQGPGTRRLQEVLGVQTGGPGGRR

- Variants of: B1
- Experimental details: protein stability index of a GFP-peptide fusion (GPS, HEK-293T) (PSI 1-6); higher = more stable;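 also: lentivirally expressed fusions sorted by FACS into six bins by GFP to DsRed ratio, PSI derived from sequencing read proportions per bin multiplied by bin number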
- Experimental conditions: c terminus: a fixed tail appended
The threshold is inclusive: protein stability index of exactly 3 counts as true (1); values below receive false (0).

Problem: Test whether the variant "YQGPGTRRLFEVLGVQTGGPGGRR" records protein stability index of 3 or higher.
Solution: false (0)

Problem: Test whether the variant "YQGPGTRRLQEVLGVYTGGPGGRR" records protein stability index of 3 or higher.
Solution: true (1)

Problem: Test whether the variant "YQGPGTRRLQEVLGVTTGGPGGRR" records protein stability index of 3 or higher.
Solution: false (0)

Problem: Test whether the variant "YQGPGTRRLQEVLGVQTGGPGGRC" records protein stability index of 3 or higher.
Solution: true (1)

Problem: Test whether the variant "YQGPGTRRLQEVLRVQTGGPGGRR" records protein stability index of 3 or higher.
Solution: true (1)

Problem: Test whether the variant "YQWPGTRRLQEVLGVQTGGPGGRR" records protein stability index of 3 or higher.
Solution: true (1)

Problem: Test whether the variant "YQGPGTRRLQEVLGVCTGGPGGRR" records protein stability index of 3 or higher.
Solution: false (0)

Problem: Test whether the variant "YQGPSTRRLQEVLGVQTGGPGGRR" records protein stability index of 3 or higher.
Solution: true (1)

Problem: Test whether the variant "YQGPGTRRLQEVLGVQTGGPQGRR" records protein stability index of 3 or higher.
Solution: true (1)

Problem: Test whether the variant "YQGPGTRRLQEVLGVQVGGPGGRR" records protein stability index of 3 or higher.
Solution: true (1)

Problem: Test whether the variant "YQGPGTRRLQEVLGVQTGEPGGRR" records protein stability index of 3 or higher.
Solution: true (1)

Problem: Test whether the variant "YQGPGTRRLQQVLGVQTGGPGGRR" records protein stability index of 3 or higher.
Solution: false (0)

Problem: Test whether the variant "YQGPGTRRLQEVLGVQTGGVGGRR" records protein stability index of 3 or higher.
Solution: false (0)

Problem: Test whether the variant "YQGPGTRRLQEVLGVQTGGPGGRE" records protein stability index of 3 or higher.
Solution: true (1)

Problem: Test whether the variant "YQGPGTGRLQEVLGVQTGGPGGRR" records protein stability index of 3 or higher.
Solution: true (1)

Problem: Test whether the variant "YQGPGTRRLQEVLGWQTGGPGGRR" records protein stability index of 3 or higher.
Solution: true (1)

Problem: Test whether the variant "YQGPGTRRLQGVLGVQTGGPGGRR" records protein stability index of 3 or higher.
Solution: true (1)

Problem: Test whether the variant "YQGPGTRRLKEVLGVQTGGPGGRR" records protein stability index of 3 or higher.
Solution: true (1)

Problem: Test whether the variant "YQGPGTRRLQEVLGVQQGGPGGRR" records protein stability index of 3 or higher.
Solution: true (1)

Problem: Test whether the variant "YQGPGTRRLQEVLIVQTGGPGGRR" records protein stability index of 3 or higher.
Solution: false (0)

Problem: Test whether the variant "YQGYGTRRLQEVLGVQTGGPGGRR" records protein stability index of 3 or higher.
Solution: false (0)

Problem: Test whether the variant "YQGPGTRRLQEVLGVQRGGPGGRR" records protein stability index of 3 or higher.
Solution: false (0)

Problem: Test whether the variant "YQGPGTRRPQEVLGVQTGGPGGRR" records protein stability index of 3 or higher.
Solution: true (1)

Problem: Test whether the variant "YQGPGTRRLQEVLGVWTGGPGGRR" records protein stability index of 3 or higher.
Solution: false (0)

Problem: Test whether the variant "YQGPGTRRLQEVLGVKTGGPGGRR" records protein stability index of 3 or higher.
Solution: true (1)

Problem: Test whether the variant "YQGPGMRRLQEVLGVQTGGPGGRR" records protein stability index of 3 or higher.
Solution: true (1)

Problem: Test whether the variant "YQGPGTRRGQEVLGVQTGGPGGRR" records protein stability index of 3 or higher.
Solution: true (1)

Problem: Test whether the variant "YQGPGTRRLQEVLGVPTGGPGGRR" records protein stability index of 3 or higher.
Solution: false (0)

Problem: Test whether the variant "YQGPGWRRLQEVLGVQTGGPGGRR" records protein stability index of 3 or higher.
Solution: false (0)

Problem: Test whether the variant "YQGPGTRRLQEVLGVQPGGPGGRR" records protein stability index of 3 or higher.
Solution: true (1)

Problem: Test whether the variant "YQRPGTRRLQEVLGVQTGGPGGRR" records protein stability index of 3 or higher.
Solution: false (0)

Problem: Test whether the variant "YQGPGTRRLQEVLGVQTGGPGGRA" records protein stability index of 3 or higher.
Solution: true (1)

Problem: Test whether the variant "YQGWGTRRLQEVLGVQTGGPGGRR" records protein stability index of 3 or higher.
Solution: false (0)

Problem: Test whether the variant "YQGPGERRLQEVLGVQTGGPGGRR" records protein stability index of 3 or higher.
Solution: true (1)

Problem: Test whether the variant "YQGPGTRRLQEVLWVQTGGPGGRR" records protein stability index of 3 or higher.
Solution: false (0)

Problem: Test whether the variant "YQGPGTRRLQEMLGVQTGGPGGRR" records protein stability index of 3 or higher.
Solution: false (0)

Problem: Test whether the variant "YQGPGTRRLQEVLGVQTNGPGGRR" records protein stability index of 3 or higher.
Solution: true (1)

Problem: Test whether the variant "YQGPGTRRLQVVLGVQTGGPGGRR" records protein stability index of 3 or higher.
Solution: false (0)

Problem: Test whether the variant "YQGPGTRRLMEVLGVQTGGPGGRR" records protein stability index of 3 or higher.
Solution: false (0)

Problem: Test whether the variant "YQGPGTRRLQEVLGVQTFGPGGRR" records protein stability index of 3 or higher.
Solution: true (1)

Problem: Test whether the variant "YQGPGTRRLQEVLGVQTGCPGGRR" records protein stability index of 3 or higher.
Solution: false (0)

Recorded values, source the supplement of paper PMC10567573.
